# assayNotes: qHTS for Inhibitors of the Functional Ribonucleoprotein Complex (vRNP) of Lassa (LASV) Arenavirus: LASV Primary Screen - GLuc reporter signal (AID 1347082); also: nearly all actives have a fitted effect of over 60% in size
# conditionParameters: LASV minigenome vRNP, Gaussia luciferase reporter; series mostly up to 57.5 µM
Records with an inconclusive call do not appear. The source made the active and inactive calls. Calls follow the shape of the full dose curve; tested in HEK293 reporter line.
Valid outcomes are listed here; reply with one: active, inactive

Name the outcome recorded for CC(C)=CCCC(C)CC(=O)O (centres undefined) in the assay.
inactive

Same for CC1(C)C[C@H]2C3=CCC4[C@@]5(C)CC[C@H](O)[C@](C)(CO)C5CC[C@@]4(C)[C@]3(C)C[C@H]3O[C@@H]1[C@H](O)[C@]32CO (some centres undefined)
inactive

Same for O=C(O)C1=CC(=C(c2ccc(O)c(C(=O)O)c2)c2ccc(O)c(C(=O)O)c2)C=CC1=O
inactive

Same for FC(F)(F)c1ccc(C=Cc2nc(COc3ccc(CCCCn4ccnn4)cc3)co2)cc1
active

Same for CC(C)n1cnc2c(NCCCCCCNC(=O)OC(C)(C)C)nc(NCCO)nc21
inactive

Same for COc1ccc(/C=C/C(=O)c2c(OC)cc(O)cc2OC)cc1
inactive

Same for COc1cc(/C=C/C(=O)c2ccc(O)cc2O)ccc1O
inactive

Same for COC(=O)c1ccc(N2CC3CNC(=O)C2(C(=O)OC)N3C)cc1 (centres undefined)
inactive

Same for C=C1C(=O)O[C@H]2[C@H]1[C@H](OC(=O)/C(C)=C\C)C[C@]1(CO1)[C@@H]1[C@H](OC(C)=O)C=C(C)[C@]21O
inactive

* * *

# assayNotes: qHTS for Inhibitors of the Functional Ribonucleoprotein Complex (vRNP) of Lymphocytic Choriomeningitis Arenaviruses (LCMV): Viability assay - alamar blue signal for LCMV Primary Screen (AID 1347085); also: nearly all actives have a fitted effect of over 80% in size
# conditionParameters: alamar blue viability counter-screen, LCMV vRNP screen cells; series mostly up to 57.5 µM
Results filed as inconclusive are left out. Active and inactive are the calls of the source. Calls follow the shape of the full dose curve; tested in HEK293 reporter line.
Valid outcomes are listed here; reply with one: T for active, F for inactive

Name the outcome recorded for Clc1ccc2c(N3CCN(CCCN4CCN(c5ccnc6cc(Cl)ccc56)CC4)CC3)ccnc2c1 in the assay.
F

Same for CCCCCCCCCCCCCCCCCCCCCCCCCCCCCC
F

Same for CC(O)(C#Cc1ccc2c(c1)N(c1nc(N)ncc1Cl)CC2)c1nccs1 (stereo not given)
T

Same for C[C@](Cc1ccc(O)c(O)c1)(NN)C(=O)O
F

Same for O=C1c2c(O)cccc2[C@@H]([C@@H]2O[C@H](CO)[C@@H](O)[C@H](O)[C@H]2O)c2cc(CO)cc(O)c21
F

Same for C[N+](C)(C)C[C@H](O)CC(=O)[O-]
F

Same for CCCCC(CC)CO (stereo not given)
F

Same for OCc1ccc(-c2ccc(-c3ccc(CO)s3)o2)s1
F

Same for CC(=O)O[C@H]1C[C@@H]2CC[C@@H]3[C@H](CC[C@@]4(C)[C@H]3C[C@H]([N+]3(C)CCCCC3)[C@@H]4OC(C)=O)[C@@]2(C)C[C@@H]1[N+]1(C)CCCCC1
F

Same for O=c1cc(-c2ccc(O)cc2)oc2cc(O)cc(O)c12
F

Same for Cn1ccnc1
F

Same for COc1cc2c(cc1OC)C(C)N(Cc1ccc3c(c1)OCO3)CC2 (stereo not given)
F

Same for CC(C)CCOC(=O)c1ccccc1
F

Same for Clc1ccc([C@@H]2C[C@H]3CC[C@@H]2N3)cn1
F

Same for Cc1cc(O)c2c(c1)C(=O)c1cccc(O)c1C2=O
F

Same for OC/C=C/c1ccccc1
F

Same for COc1c2ccoc2c(OC[C@@H](OC(C)=O)C(C)(C)O)c2oc(=O)ccc12
F

Same for C#CCCCCCCCCCCCc1ccco1
F

Same for Brc1c(Br)c(Br)c2n[nH]nc2c1Br
F

Same for C[C@@H]1CC[C@H]2[C@H](C)[C@H]3CC[C@H]4C5[C@@H](O)CC6=CC(=O)CC[C@]6(C)[C@H]5C[C@H]4C3C(=O)N2C1 (stereo not given in full)
F

Same for CCC(NC(C)C)C(O)c1ccc(O)c(O)c1 (stereo not given)
F

Same for CC(=Cc1ccccc1)C=C1SC(=S)N(CC(=O)O)C1=O
F

Same for NC[C@H]1O[C@@H](n2cnc3c(N)ncnc32)[C@H](O)[C@@H]1O
F

Same for CC1(C)CCC=[N+]1[O-]
F

Same for C[C@]12CCC3=C4CCC(=O)C=C4CC[C@@H]3[C@H]1CC[C@@]2(O)CC#N
F

Same for O=C(O)[C@H]1NC[C@H]2C[C@H]21
F

Same for CCCCCC1CCC(=O)O1 (stereo not given)
F

Same for CC1=CC(=O)OC2CC3OC4C[C@@H](C)C5OC6CC7O[C@]8(C)C/C=C\C9OC%10CC%11OC(CC(C)CO)CC(O)[C@]%11(C)OC%10CC9OC8C[C@]7(C)O[C@]6(C)CCC5OC4C[C@]3(C)OC12 (stereo not given in full)
F

Same for C=CCCCCCCCCCCCC
F

Same for CCS(=O)(=O)Nc1ccc2[nH]c(O)c(C(=Nc3ccc(CN4CCCCC4)cc3)c3ccccc3)c2c1
T

Same for COc1ccc(-c2nc(N3CCOCC3)c3sc(CN(C)c4ncc(C(=O)NO)cn4)cc3n2)cn1
T

Same for N#CC(=C1Nc2ccccc2S1)c1ccnc(OCc2ccc(CN3CCOCC3)cc2)n1
T

Same for NC(=O)C(=O)O
F

Same for CN(C)S(=O)(=O)c1ccc2c(c1)/C(=C/c1cc3c([nH]1)CCCC3)C(=O)N2
F

Same for Nc1cc(Cl)c(NC2=NCCN2)c(Cl)c1
F

Same for O=C(O)C(O)Cc1ccc(O)c(O)c1 (stereo not given)
F

Same for Cc1csc(-c2nnc(Nc3ccc(Oc4ncccc4-c4ccnc(N)n4)cc3)c3ccccc23)c1
T

Same for O=C(C[C@@H]1CC=CCCC(=O)O[C@H](c2ccccc2)CNC1=O)NCc1ccc(Cl)cc1
F

Same for COc1cc(CC(=O)O)ccc1O
F

Same for CC(C=CC(O)=C1C(=O)CNC1=O)=C[C@@H](C)C1OC2(C)OC(C(=O)C3O[C@@]32C)C1C (stereo not given in full)
F

Same for c1ccc(CNc2nc(N3CCOc4ccccc43)nc3c2CCCC3)cc1
F

Same for CCCC[C@@]1(C2CCCC2)Cc2cc(OCC(=O)O)c(Cl)c(Cl)c2C1=O
F

Same for CCCC(=O)OCc1ccccc1
F

Same for Cc1cc(CN2CCN(c3c(Br)cnc4nc(-c5ccc(N6CCN(C)CC6)cc5)[nH]c34)CC2)no1
F

Same for NC1(C(=O)O)CCCCC1
F
